In this section, each of the molecules is paired with its reported EC50.
- assay notes: Trypanosoma cruzi growth suppression in host cells – NIH3T3 host cells, beta-gal luminescence, confirmation (AID 2044);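 further: intracellular parasites grown in NIH/3T3 mouse fibroblasts as host cells; luminescent beta-galactosidase reporter signal from transgenic T. cruzi replicating inside host cells; inhibitors lower the luminescence signal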
- Assay type: functional, cell-based
Activity calls are given as the source filed them. No stated cut-off is given here; in the data, actives have a measured EC50 and inactives only a lower limit.
metric name: EC50

c1ccc(-c2nc(N3CCCCCC3)c3ccccc3n2)nc1 :: 845 nM (active)
c1ccc(Nc2ccc3c4c(cccc24)CC3)cc1 :: 970 nM (active)
Cc1c(Cl)cccc1NC(=O)COC(=O)c1c2c(nc3ccccc13)CCN(Cc1ccccc1)C2 :: 1630 nM (active)
Cc1cc(C)nc(-n2nc(C)c(Sc3ccc(F)cc3)c2N)n1 :: 2010 nM (active)
O=C(NCc1ccccc1)C(=O)NCC1OCCN1S(=O)(=O)c1ccc([N+](=O)[O-])cc1 (stereo unspecified) :: 782 nM (active)
CC(=O)OCCNc1cc(Sc2nc3ccccc3[nH]2)c2nonc2c1[N+](=O)[O-] :: 2470 nM (active)

The reported numbers originate from ChEMBL document CHEMBL1201862.
